Catalogue of ED50 values
- method.summary: Rotating rod test (sedative/muscle relaxant properties), i.v.
- Assay type: in vivo
- measurement.context: Mus musculus, iv, 15 s, mice, 15 sec after administration, read-out: Rotating rod test, ED50, 15 sec after administration
Form entry: value (mg/kg) — number only.

Example cases with answers are listed next.
molecule.smiles	endpoint.value
CCCN(CCC)Cc1nc(-c2ncn3c2[C@@H]2CCN2C(=O)c2c(Cl)cccc2-3)no1	0.3
CCN(CC)Cc1nc(-c2ncn3c2CN(C)C(=O)c2cc(F)ccc2-3)no1	0.1
C=CCN(CC=C)Cc1nc(-c2ncn3c2[C@@H]2CCN2C(=O)c2c-3ccc(F)c2Cl)no1	0.2
CCCN(CCC)Cc1nnc(-c2ncn3c2CN(C)C(=O)c2c(Cl)cccc2-3)o1	0.3
CCCN(CCC)Cc1nc(-c2ncn3c2CN(C)C(=O)c2ccccc2-3)no1	0.2
CCCN(CCC)Cc1nnc(-c2ncn3c2CN(C)C(=O)c2cc(F)ccc2-3)o1	0.3

Query string: Please give the measured ED50 for this compound: CCCN(CCC)Cc1nc(-c2ncn3c2[C@@H]2CCN2C(=O)c2sccc2-3)no1
Result string: 0.1

Query string: Please give the measured ED50 for this compound: CCN(CC)Cc1nc(-c2ncn3c2[C@@H]2CCN2C(=O)c2sccc2-3)no1
Result string: 0.2

Query string: Please give the measured ED50 for this compound: CCN(CC)Cc1nc(-c2ncn3c2CN(C)C(=O)c2c(Cl)cccc2-3)no1
Result string: 0.1

* * *

- method.summary: Rotating rod test (sedative/muscle relaxant properties), i.v.
- Format: in vivo
- measurement.context: Mus musculus, iv, 5 min, mice, 5 min after administration, read-out: Rotating rod test, ED50, 5 min after administration
- Experimental: The sedative/muscle relaxant properties of the compounds of formula I in accordance with the invention can be determined, for example, in the rotating rod test. Mice weighing 19-21 g are used for this test. They have free access to feed and drinking water up to 1 hour before the beginning of the test. […] At various points in time it is then determined whether the animals are able to remain on the rod for a minimum period (minimum period: 10 seconds; from 5 minutes after administration: 1 minute.). […]
Quick rule for you: ED50 under 2 mg/kg gets T, anything else gets F.

compound	category
CN1Cc2c(-c3noc(CN4CCCCC4)n3)ncn2-c2ccc(F)cc2C1=O [C]	F
CCCN(CCC)Cc1nc(-c2ncn3c2[C@@H]2CCN2C(=O)c2c(Cl)cccc2-3)no1 [A]	T
CCCN(CCC)Cc1nc(-c2ncn3c2CN(C)C(=O)c2c(F)cccc2-3)no1 [J]	T
CCN(CC)Cc1nc(-c2ncn3c2[C@@H]2CCN2C(=O)c2sccc2-3)no1 [M]	F

# ---- query compound ----
Query string: is_below(ED50, 2 mg/kg) for CCCN(CCC)Cc1nnc(-c2ncn3c2CN(C)C(=O)c2c(Cl)cccc2-3)o1 [L] ?
Result string: F

* * *

- experimental.system: central benzodiazepine receptors
- method.summary: Affinity to central benzodiazepine receptors: inhibition of binding of tritiated flumazenil in rat cortex
- measurement.context: in vitro
Catalogue of pIC50 values
pIC50 field: float, defined as -log10 of concentration (mol/L).

molecule.smiles	endpoint.value
CCN(CC)Cc1nc(-c2ncn3c2[C@@H]2CCN2C(=O)c2sccc2-3)no1	8.19

Query string: Please give the measured pIC50 for this compound: CN1Cc2c(-c3noc(CN4CCCCC4)n3)ncn2-c2ccc(F)cc2C1=O
Result string: 7.30

Query string: Please give the measured pIC50 for this compound: C=CCN(CC=C)Cc1nc(-c2ncn3c2[C@@H]2CCN2C(=O)c2c-3ccc(F)c2Cl)no1
Result string: 8.00

Query string: Please give the measured pIC50 for this compound: CCCCN(CCCC)Cc1nnc(-c2ncn3c2[C@@H]2CCN2C(=O)c2sccc2-3)o1
Result string: 8.32
